# study.system: T1, proprotein convertase subtilisin/kexin type 9 (PCSK9) (human, UniProt Q8NBP7 31-692)
# T1 construct: His-tagged full-length PCSK9 in TR-FRET and SPR, biotinylated in phage ELISA; secreted protein is autoprocessed (prodomain plus catalytic/CRD chain starting at S153); also called rec.PCSK9; His-PCSK9
# T1 sequence (Q8NBP7 other isoform, or with tags, fused parts or gaps limits assumed): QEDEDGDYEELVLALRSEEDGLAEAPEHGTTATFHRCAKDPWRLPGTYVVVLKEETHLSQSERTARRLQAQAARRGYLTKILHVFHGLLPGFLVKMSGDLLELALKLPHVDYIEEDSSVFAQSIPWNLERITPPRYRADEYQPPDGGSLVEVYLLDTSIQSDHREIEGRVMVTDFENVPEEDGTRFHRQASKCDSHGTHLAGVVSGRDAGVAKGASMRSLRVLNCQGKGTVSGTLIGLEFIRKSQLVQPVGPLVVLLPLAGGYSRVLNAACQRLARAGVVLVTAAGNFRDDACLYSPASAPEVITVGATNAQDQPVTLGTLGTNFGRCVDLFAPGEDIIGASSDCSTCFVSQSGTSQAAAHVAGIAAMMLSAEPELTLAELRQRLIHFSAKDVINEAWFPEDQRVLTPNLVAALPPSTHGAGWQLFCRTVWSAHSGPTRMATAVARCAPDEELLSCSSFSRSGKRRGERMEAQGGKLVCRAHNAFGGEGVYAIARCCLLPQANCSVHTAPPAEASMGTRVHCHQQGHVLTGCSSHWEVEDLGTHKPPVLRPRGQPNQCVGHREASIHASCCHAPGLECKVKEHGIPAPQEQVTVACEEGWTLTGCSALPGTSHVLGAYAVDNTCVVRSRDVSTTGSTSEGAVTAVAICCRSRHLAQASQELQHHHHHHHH
# procedure.summary: phage spot ELISA
Ends that are not written are not given here.
quantity.name: ELISA

binder	recorded.value
TAFTSWEEYLDWVGSGKCDSHYIRGVVACH [SEQ ID NO 356]	2.95
TAFTSWEEYLDWVGSGGCGYRYMCDMINGL [SEQ ID NO 358]	2.92
TAFTSWEEYLDWVGSGCMEAWQCSLA [SEQ ID NO 337]	2.73
TAFTSWEEYLDWVGSGQVTSLPQA [SEQ ID NO 363]	2.46
TAFTSWEEYLDWVGSGRGGYELNIPR [SEQ ID NO 326]	3.13
TAFTSWEEYLDWVGSGPRTYLRGLVD [SEQ ID NO 340]	2.77
TAFTSWEEYLDWVGSGGDCYPHCRLV [SEQ ID NO 359]	2.86
TAFTSWEEYLDWVGSGKMTHMKAD [SEQ ID NO 357]	2.31
TAFTSWEEYLDWVGSGQISYLRNA (not fully specified; also: Q (1) D-amino acid, place in chain unclear (phage-displayed)) [SEQ ID NO 342]	2.7
TAFTSWEEYLDWVGSGCLDRSGGCYTREGYLS [SEQ ID NO 353]	3.06
TAFTSWEEYLDWVGSGCYPLCRVL [SEQ ID NO 364]	2.86
TAFTSWEEYLDWVGSGGDCGYHYMCSMT [SEQ ID NO 345]	2.75
TAFTSWEEYLDWVGSGPTSGLTPS [SEQ ID NO 361]	2.66
TAFTSWEEYLDWVGSGGVLGVGGMWIA [SEQ ID NO 335]	1.45
TAFTSWEEYLDWVGSGQCYPWCRL [SEQ ID NO 338]	2.71
TAFTSWEEYLDWVGSGRGEVYDKGGVIVHL [SEQ ID NO 343]	2.84
TAFTSWEEYLDWVGSGDCNLWGDDGKYRLCF [SEQ ID NO 333]	2.72
TAFTSWEEYLDWVGSGCYPLCRVG [SEQ ID NO 355]	3.06
TAFTSWEEYLDWVGSGSETGLGTYYG [SEQ ID NO 350]	2.81
TAFTSWEEYLDWVGSGRCESKGWANTCVSE [SEQ ID NO 362]	2.98
TAFTSWEEYLDWVGSGSSTWHFVGGVRV [SEQ ID NO 354]	2.71
